Target System: hLAT1 (Homo sapiens)
Construct: expressed in transfected cells; host or cells: LLCPK cells, tetracycline/doxycycline-inducible, boosted with sodium butyrate
Sequence (Q01650 whole entry): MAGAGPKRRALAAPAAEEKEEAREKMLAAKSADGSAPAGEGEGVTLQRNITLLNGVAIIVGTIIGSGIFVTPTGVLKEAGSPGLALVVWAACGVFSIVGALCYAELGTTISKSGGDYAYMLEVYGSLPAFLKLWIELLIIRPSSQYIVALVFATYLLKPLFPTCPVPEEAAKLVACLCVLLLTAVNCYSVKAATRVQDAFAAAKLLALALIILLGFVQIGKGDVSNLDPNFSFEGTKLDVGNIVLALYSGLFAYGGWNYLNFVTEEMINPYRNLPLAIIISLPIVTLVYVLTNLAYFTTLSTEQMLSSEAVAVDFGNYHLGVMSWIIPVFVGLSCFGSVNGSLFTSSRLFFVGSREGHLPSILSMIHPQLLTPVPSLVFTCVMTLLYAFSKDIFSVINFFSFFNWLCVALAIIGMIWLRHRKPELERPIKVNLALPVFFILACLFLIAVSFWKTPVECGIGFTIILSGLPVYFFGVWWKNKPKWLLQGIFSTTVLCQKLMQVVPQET
Sequence (P08195 whole entry partner): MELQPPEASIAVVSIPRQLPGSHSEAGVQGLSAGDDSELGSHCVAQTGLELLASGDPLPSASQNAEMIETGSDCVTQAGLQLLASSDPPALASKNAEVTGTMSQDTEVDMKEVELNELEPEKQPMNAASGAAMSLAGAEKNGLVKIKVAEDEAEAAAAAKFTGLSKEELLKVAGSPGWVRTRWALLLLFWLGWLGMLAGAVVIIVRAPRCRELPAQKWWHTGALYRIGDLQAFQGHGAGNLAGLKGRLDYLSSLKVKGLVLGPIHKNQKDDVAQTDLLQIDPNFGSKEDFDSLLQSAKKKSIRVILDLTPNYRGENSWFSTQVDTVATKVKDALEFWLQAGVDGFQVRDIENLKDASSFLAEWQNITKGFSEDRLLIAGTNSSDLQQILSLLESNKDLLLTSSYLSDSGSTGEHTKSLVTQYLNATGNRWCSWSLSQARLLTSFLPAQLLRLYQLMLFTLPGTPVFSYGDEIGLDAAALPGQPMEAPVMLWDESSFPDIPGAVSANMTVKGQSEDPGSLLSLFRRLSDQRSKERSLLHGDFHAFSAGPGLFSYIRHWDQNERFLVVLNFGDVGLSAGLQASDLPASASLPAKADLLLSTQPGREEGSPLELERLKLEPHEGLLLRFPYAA
Protocol Description: LAT1 uptake inhibition assay, radiolabeled competition uptake with [3H]-Gabapentin
Type: cell-based
Condition Context: LAT1-expressing cells, increasing concentration of test compound; read-out: IC50, concentration of test compound at which the [3H]-GP was inhibited by 50%
Provide the reported IC50 of each item.

Cc1ccc(CBr)cc1C[C@H](N)CC(=O)O = < 100 µM

API: the following record is the query input.
Lab entry: hLAT1 (Homo sapiens) assay, compound Cc1ccc(C(=O)N[C@@H](CC(C)C)C(=O)C2(C)CO2)cc1C[C@H](N)CC(=O)O (stereo in doubt) , IC50 = < 100 µM
